// data source = ChEMBL document CHEMBL1201862

system: BJ; experiment: BJ-TERT fibroblast viability loss – cell-based, RAS-independent, luminescence, dose response (AID 1933); assay type: functional; conditions: Homo sapiens
Listed below: EC50 values for each entry.
quantityName: EC50

molecule=C/C1=C\[C@@H](C)C/C=C/[C@H]2[C@@H]3O[C@]3(C)[C@@H](C)[C@H]3[C@H](Cc4c[nH]c5ccccc45)NC(=O)[C@]32C(=O)/C=C/C(=O)[C@@H]1O quantityname=EC50 measuredvalue="3.85 µM (inconclusive)"
molecule=c1ccc(-c2cnnc(SCc3cn4cccnc4n3)n2)cc1 quantityname=EC50 measuredvalue="> 150 µM (not active)"
molecule=CC1=C(C)/C(=N\OS(=O)(=O)c2ccccc2)C=CC1=O quantityname=EC50 measuredvalue="2.78 µM (inconclusive)"
molecule=ClC1=C(Cl)C(Cl)=C(Cl)C1=C/C=C/c1ccccc1 quantityname=EC50 measuredvalue="2.55 µM (inconclusive)"
